# Run Description: clinical
# Condition Details: human, in vivo, inhaled or intranasal, 5 mg, Cmax (ng/mL) GM
Assay Metric: Cmax (ng/mL)
Report as a plain number; the unit ng/mL is understood.

Fill in the blank: the reported Cmax of Cc1cc(C[C@@H](NC(=O)N2CCC(c3cc4ccccc4[nH]c3=O)CC2)C(=O)N2CCN(C3CCN(C)CC3)CC2)cc2cn[nH]c12 [Zavegepant] is ____.
7.8

###

# Run Description: Phase 1 multiple ascending dose (MAD) study, intranasal, pharmacokinetics
# Set-up: species or system human
# Condition Details: human, in vivo, inhaled or intranasal, 5 mg
Assay Metric: Vd/F (L)
Report as a plain number; the unit L is understood.

Fill in the blank: the reported Vd/F of "Cc1cc(C[C@@H](NC(=O)N2CCC(c3cc4ccccc4[nH]c3=O)CC2)C(=O)N2CCN(C3CCN(C)CC3)CC2)cc2cn[nH]c12" is ____.
1570

Numbers sourced from patent US20220401439A1.
